This listing pairs compounds with measured EC50.
- MEASURED_ON: UniProt:P25103
- Sequence (P25103 whole entry): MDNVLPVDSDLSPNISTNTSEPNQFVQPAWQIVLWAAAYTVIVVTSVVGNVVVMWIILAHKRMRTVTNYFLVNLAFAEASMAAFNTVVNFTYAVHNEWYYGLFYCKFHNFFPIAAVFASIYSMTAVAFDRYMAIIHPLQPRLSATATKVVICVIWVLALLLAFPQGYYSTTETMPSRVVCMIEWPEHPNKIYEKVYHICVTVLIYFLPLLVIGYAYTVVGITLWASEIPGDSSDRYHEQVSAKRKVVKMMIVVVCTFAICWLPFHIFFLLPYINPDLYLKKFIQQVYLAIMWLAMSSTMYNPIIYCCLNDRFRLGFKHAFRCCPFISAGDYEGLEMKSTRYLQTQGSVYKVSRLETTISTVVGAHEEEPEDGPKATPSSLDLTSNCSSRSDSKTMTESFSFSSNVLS
- TEST_PROTOCOL: Tested for the biological activity and selectivity against NK-1 receptor
Starred links: 1 amine or outer side, 2 acyl side, 3 side chain; linkers in the order of their positions; H or OH if unused. Positions of bridges follow the written chain, without caps; N, C: chain ends. Non-standard residues stand in square brackets, D forms with d. Residues, ends and D or L forms follow the SMILES beside them. NGly(3-aminopropyl) = O=C(CN(CCCN[*:3])[*:1])[*:2]; N(2-Aminoethyl)Gly = O=C(CN(CCN[*:3])[*:1])[*:2]; Adipoyl = O=C(CCCCC(=O)[*:2])[*:1]; Glutaryl = O=C(CCCC(=O)[*:2])[*:1]; Suc = O=C(CCC(=O)[*:2])[*:1]
RECORDED_ENDPOINT: EC50 (nM)

COMPOUND	CENSORING_OPERATOR	READING
CSCC[C@H](NC(=O)[C@H](CC(C)C)NC(=O)CN1CCNC(=O)CCC(=O)NCC(=O)N[C@@H](CCCN=C(N)N)C(=O)N[C@@H](Cc2ccccc2)C(=O)N[C@@H](Cc2ccccc2)C1=O)C(N)=O (GRFF[N(2-Aminoethyl)Gly]LM-NH2; linker N-5 via Suc)	>	10000
CSCC[C@H](NC(=O)[C@H](CC(C)C)NC(=O)CN1CCCNC(=O)CCCCC(=O)N[C@@H](CCCN=C(N)N)C(=O)N[C@@H](Cc2ccccc2)C(=O)N[C@@H](Cc2ccccc2)C1=O)C(N)=O (RFF[NGly(3-aminopropyl)]LM-NH2; linker N-4 via Adipoyl)	=	5
CSCC[C@H](NC(=O)[C@H](CC(C)C)NC(=O)CN1CCCNC(=O)CCCC(=O)N[C@@H](CCCN=C(N)N)C(=O)N[C@@H](Cc2ccccc2)C(=O)N[C@@H](Cc2ccccc2)C1=O)C(N)=O (RFF[NGly(3-aminopropyl)]LM-NH2; linker N-4 via Glutaryl)	=	11
CSCC[C@H](NC(=O)[C@H](CC(C)C)NC(=O)CN1CCCNC(=O)CCC(=O)N[C@@H](CCCN=C(N)N)C(=O)N[C@@H](Cc2ccccc2)C(=O)N[C@@H](Cc2ccccc2)C1=O)C(N)=O (RFF[NGly(3-aminopropyl)]LM-NH2; linker N-4 via Suc)	=	180
